This collection of values is drawn from patent US20120115724A1.

Test system: SINAR Sinapis arvensis
experimentNotes: Post-emergence crop and weed test (Example 15)
Format: in vivo
conditionContext: Mutarda arvensis, 360 h, 8 g/ha, after 15 days, read-out: Percentage damage SINAR
Experimental: Seeds of crop and representative weed species were sown in standard soil in pots. After cultivation for 14 days under controlled conditions in a glasshouse (at 22/16° C., day/night; 16 hours light; 65% humidity), the plants were sprayed. […] The test plants were then grown on under controlled conditions in a glasshouse (at 22/16° C., day/night; 16 hours light; 65% humidity) and watered twice daily. After 15 days the test was evaluated (100 =total damage to plant; 0 =no damage to plant).
propertyName: pest or weed control at 8 g/ha

List reported pest or weed control at 8 g/ha for each of these compounds:
1. C=Cc1c(N)nc(-c2ccc(Cl)c(OC)c2F)nc1C(=O)OC
2. C=Cc1c(N)nc(-c2ccc(Cl)c(OC)c2F)nc1C(=O)O
3. C=Cc1c(N)nc(C2CC2)nc1C(=O)OC [Ref. Ex. C, reference compound]
4. COC(=O)c1nc(-c2ccc(Cl)c(OC)c2F)nc(N)c1Cl [Ref. Ex. B, reference compound]
5. C/C=C\c1c(N)nc(-c2ccc(Cl)c(OC)c2F)nc1C(=O)OC

1. 10%
2. 0%
3. 0%
4. 80%
5. 60%
